Listing of entries alongside the reported koff.
- Subject Of Test: T1, human GPC3-his tag protein (human, UniProt P51654 25-559, limits assumed)
- T1 construct: recombinant soluble antigen used as analyte in all Biacore runs; also called recombinant GPC3 protein; rhGPC3-His; not shown: His tag
- Experiment Summary: SPR Biacore, mAb captured on CM5, GPC3-his dilution series (full kinetics)
State the answer as a number, implicitly in s⁻¹.

Answered examples (3):
GET /value?item= 52H5D3B8-6#-VH3+VL3 (antibody, V domains shown, humanized) VH: QVQLVQSGAEVKKPGASVKVSCKALGYTFTDYEMHWVKQAPGQGLEWIGAIHPGSGGTAYNQKFKGRVTLTADTSTSTVYMELSSLRSEDTAVYYCTRYYSYAYWGQGTLVTVSS VL: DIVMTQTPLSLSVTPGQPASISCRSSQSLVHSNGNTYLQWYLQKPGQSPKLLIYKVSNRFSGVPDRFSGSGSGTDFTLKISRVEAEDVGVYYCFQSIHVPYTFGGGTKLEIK &field=koff returns 0.000538

GET /value?item= 52H5D3B8-6# chimeric mAb (antibody, V domains shown, CDR3 mutant of the 52H5D3B8 chimeric mAb (human IgG1); also called 52H5D3B8-6#-VH+VL) VH: QVQLQQSGAELVRPGASVKLSCKALGYTFTDYEMHWVKQTPVHGLEWIGAIHPGSGGTAYNQKFKGKATLTADKFSSTGYMELSSLTSEDSAVYYCTRYYSYAYWGQGTLVTVSA VL: DVVMTQTPLSLPVSLGDQASISCRSSQSLVHSNGNTYLQWYLQKPGQSPKLLIYKVSNRFSGVPDRFSGSGSGTDFILKISRVEAEDLGVYFCFQSIHVPYTFGGGTKLEIK &field=koff returns 0.000265

GET /value?item= 52H5D3B8-6#-VH1+VL1 (antibody, V domains shown, humanized) VH: QVQLVQSGAEVKKPGASVKVSCKASGYTFTDYEMHWVRQAPGQGLEWMGAIHPGSGGTAYNQKFKGRVTMTRDTSTSTVYMELSSLRSEDTAVYYCARYYSYAYWGQGTLVTVSS VL: DIVMTQTPLSLSVTPGQPASISCRSSQSLVHSNGNTYLQWYLQKPGQSPQLLIYKVSNRFSGVPDRFSGSGSGTDFTLKISRVEAEDVGVYYCFQSIHVPYTFGGGTKLEIK &field=koff returns 0.00111

Then this binder:
GET /value?item= 52H5D3B8-6#-VH2+VL4 (antibody, V domains shown, humanized) VH: QVQLVQSGAEVKKPGASVKVSCKASGYTFTDYEMHWVRQAPGQGLEWIGAIHPGSGGTAYNQKFKGRVTMTADTSTSTVYMELSSLRSEDTAVYYCTRYYSYAYWGQGTLVTVSS VL: DIVMTQTPLSLSVTPGQPASISCRSSQSLVHSNGNTYLQWYLQKPGQSPKLLIYKVSNRFSGVPDRFSGSGSGTDFTLKISRVEAEDVGVYFCFQSIHVPYTFGGGTKLEIK &field=koff returns 0.000669

Data credit: patent US20240409663A1
